- System Under Test: K55A / F82I
- Assay Text: SPR; 37C
Experimental Readout: Kd (nM)
I only need the number, in nM, no unit after it.

Example binders with recorded Kd:
GDF11 (ligand) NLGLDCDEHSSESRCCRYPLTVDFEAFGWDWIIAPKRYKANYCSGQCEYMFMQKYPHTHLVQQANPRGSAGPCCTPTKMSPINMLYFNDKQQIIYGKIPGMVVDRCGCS	0.09
Activin A (ligand) GLECDGKVNICCKKQFFVSFKDIGWNDWIIAPSGYHANYCEGECPSHIAGTSGSSLSFHSTVINHYRMRGHSPFANLKSCCVPTKLRPMSMLYYDDGQNIIKKDIQNMIVEECGCS	0.047
BMP10 (ligand) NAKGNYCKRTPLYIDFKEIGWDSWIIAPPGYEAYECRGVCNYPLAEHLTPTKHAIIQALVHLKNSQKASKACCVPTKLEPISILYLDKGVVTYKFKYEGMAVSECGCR	0.007

# next binder below
Reported Kd, binder BMP9 (ligand) SAGAGSHCQKTSLRVNFEDIGWDSWIIAPKEYEAYECKGGCFFPLADDVTPTKHAIVQTLVHLKFPTKVGKACCVPTKLSPISVLYKDDMGVPTLKYHYEGMSVAECGCR : ____ 0.134
